Biological target: Rep WT (Escherichia coli, UniProt P09980 1-673)
Assay: SPR; no nucleotide, 5 mM Mg2+; kon 1.22e7 M-1 s-1, koff 5.91e-3 s-1; SPR: 25 mM Tris-HCl pH 7.6, 50 mM NaCl, 5 mM MgCl2, 0.25 mM DTT, 0.2 mM EDTA, 0.005% P20, 20 C; single-molecule: 25 mM Tris-HCl pH 7.9, 10 mM Mg acetate, 50 mM
Conditions: protein: recombinant; chain copies: 2; single strand

# binder, Kd / pM
rows = [
    ("TTTTTTTTTTTTTTT (ssDNA, 3'-biotin) [3'-bio-dT15]", 500),
]
